Values compiled from the supplement of paper PMC10065799.

Recorded phosphorylation enrichment for the following sequences
Target: Fes (UniProt P07332)
Sequence (P07332 whole entry, looked up): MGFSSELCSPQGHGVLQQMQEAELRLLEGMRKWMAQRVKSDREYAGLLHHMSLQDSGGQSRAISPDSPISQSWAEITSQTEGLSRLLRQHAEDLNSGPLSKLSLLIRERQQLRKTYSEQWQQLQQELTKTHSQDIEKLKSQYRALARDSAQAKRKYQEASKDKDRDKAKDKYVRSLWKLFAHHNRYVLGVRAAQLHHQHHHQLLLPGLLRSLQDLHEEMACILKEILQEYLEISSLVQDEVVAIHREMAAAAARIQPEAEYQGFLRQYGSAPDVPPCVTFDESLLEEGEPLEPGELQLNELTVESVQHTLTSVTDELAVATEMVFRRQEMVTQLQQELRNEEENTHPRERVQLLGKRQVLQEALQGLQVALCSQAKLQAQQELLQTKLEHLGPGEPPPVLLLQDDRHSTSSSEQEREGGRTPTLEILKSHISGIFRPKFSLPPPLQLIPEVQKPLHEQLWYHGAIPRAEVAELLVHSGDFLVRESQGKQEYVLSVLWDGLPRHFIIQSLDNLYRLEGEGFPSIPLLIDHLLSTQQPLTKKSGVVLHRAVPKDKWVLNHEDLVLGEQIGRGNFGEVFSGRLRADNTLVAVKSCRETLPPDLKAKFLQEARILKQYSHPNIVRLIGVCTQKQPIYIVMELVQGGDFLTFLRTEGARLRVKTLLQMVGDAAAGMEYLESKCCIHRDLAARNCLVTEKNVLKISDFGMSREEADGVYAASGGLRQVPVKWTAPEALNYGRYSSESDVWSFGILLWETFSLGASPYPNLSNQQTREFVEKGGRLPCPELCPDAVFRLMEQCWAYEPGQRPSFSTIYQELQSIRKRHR
Test: phosphorylation enrichment, bacterial display (enrichment ratio); higher = better substrate or ligand; peptides without Tyr show the background;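 also: 11-residue human phosphosite peptides and single-mutation variants displayed on the E. coli surface, counted by deep sequencing, each peptide's frequency after selection divided by its frequency in the unselected input library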;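 also: frequency after pTyr selection over input frequency; kinase dosed for 20-30% of maximal phosphorylation in three min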
endpoint: phosphorylation enrichment

INSERT INTO assay_data (sequence_chain, observed_value) VALUES
  ('LSVISYDLGMF [GBA3_Y174_M172I]', 1.27),
  ('SLALFYRKVFH [RBL1_Y792_YF]', 1.26),
  ('EATKGYLDDPT [G6PD_Y322]', 1.03),
  ('WIPNQYPIISE [NOG_Y222_I220N]', 0.98),
  ('MEIHAYRKLLE [LMNA_Y376]', 0.97),
  ('FLTQHHDAKPQ [ANG_Y38_Y38H]', 0.742),
  ('RRIHSYRCHLW [VHL_Y112_G114C]', 1.25),
  ('EDKSIYRRGAC [PRKCI_Y125_R130C]', 0.705),
  ('TKVTFYKQPMF [GBA_Y451_D448V]', 0.936),
  ('TFEPNYGTVKQ [RAPGEF6_Y1447_YF]', 0.607),
  ('EFISEFCGEII [EZH2_Y641_Y641F]', 1.42),
  ('IGEGTYGVLFK [CDK2_Y15_V18L_YF]', 0.997),
  ('WRPFGYPHRRR [BCS1L_Y181_R183H]', 0.511),
  ('PLSGEYFTLQI [TP53_Y327_D324S]', 1.62);

====

Tested on: c-Src
Assay: phosphorylation enrichment, bacterial display (enrichment ratio); higher = better substrate or ligand; peptides without Tyr show the background
endpoint: phosphorylation enrichment

INSERT INTO measurements (sequence_chain, endpoint, observed_value) VALUES
  ('QRIFQYIRSRF [DYRK1B_Y273_Q275R_YF]', 'phosphorylation enrichment', 1.36),
  ('QEIATYPRLLE [KRT14_Y415_R416P]', 'phosphorylation enrichment', 0.595),
  ('EIEFLYNENTV [IARS1_Y680]', 'phosphorylation enrichment', 0.557),
  ('MMVGAYSTLEG [ECPAS_Y470]', 'phosphorylation enrichment', 0.704),
  ('RVGNMYMRGLS [ABCG8_Y209_V210M]', 'phosphorylation enrichment', 0.552),
  ('ATVRPYRPFII [LRP5_Y1528_A1525V_YF]', 'phosphorylation enrichment', 0.493),
  ('EASGIYVKSII [PATJ_Y396]', 'phosphorylation enrichment', 0.458),
  ('KLSFSYGQALQ [ALDOB_Y302_R304Q]', 'phosphorylation enrichment', 0.41),
  ('RVGVDYEGGGC [PLOD1_Y675]', 'phosphorylation enrichment', 0.287),
  ('IEKLTYIDKWF [CPS1_Y872]', 'phosphorylation enrichment', 0.601),
  ('LIFVSYDDWDY [GRIN2A_Y281_S278F]', 'phosphorylation enrichment', 0.914),
  ('RICRRYCQVLN [IQCF1_Y144_R141C]', 'phosphorylation enrichment', 0.738),
  ('ADFPDYKFRPR [SOX11_Y116_YF]', 'phosphorylation enrichment', 0.357),
  ('LSQAKYQIRFR [CRLF1_Y272_F268S_YF]', 'phosphorylation enrichment', 0.421);

====

Target: FGFR3 (UniProt P22607)
Sequence (P22607 whole entry, looked up): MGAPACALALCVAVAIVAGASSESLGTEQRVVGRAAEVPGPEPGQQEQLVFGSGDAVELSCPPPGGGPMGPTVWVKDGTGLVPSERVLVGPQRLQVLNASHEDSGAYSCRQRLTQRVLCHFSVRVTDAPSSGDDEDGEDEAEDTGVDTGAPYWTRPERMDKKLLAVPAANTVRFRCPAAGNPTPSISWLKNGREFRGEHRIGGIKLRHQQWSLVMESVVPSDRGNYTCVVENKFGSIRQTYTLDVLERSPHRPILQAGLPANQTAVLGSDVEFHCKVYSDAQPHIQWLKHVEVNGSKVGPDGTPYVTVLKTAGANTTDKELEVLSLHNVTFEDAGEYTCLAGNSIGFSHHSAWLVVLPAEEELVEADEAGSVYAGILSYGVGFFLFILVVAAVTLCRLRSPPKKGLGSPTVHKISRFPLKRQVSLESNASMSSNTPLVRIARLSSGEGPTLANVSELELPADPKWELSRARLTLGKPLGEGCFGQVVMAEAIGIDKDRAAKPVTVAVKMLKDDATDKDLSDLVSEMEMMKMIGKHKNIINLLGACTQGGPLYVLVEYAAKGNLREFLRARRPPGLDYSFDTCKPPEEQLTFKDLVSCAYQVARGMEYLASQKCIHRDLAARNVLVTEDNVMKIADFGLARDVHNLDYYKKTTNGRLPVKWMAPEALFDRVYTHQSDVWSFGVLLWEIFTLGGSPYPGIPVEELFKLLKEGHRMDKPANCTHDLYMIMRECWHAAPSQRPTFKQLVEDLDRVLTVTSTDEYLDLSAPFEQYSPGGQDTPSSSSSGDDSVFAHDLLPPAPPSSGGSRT
Assay: phosphorylation enrichment, bacterial display (enrichment ratio); higher = better substrate or ligand; peptides without Tyr show the background
Recorded phosphorylation enrichment for the following sequences
endpoint: phosphorylation enrichment

INSERT INTO assay_data (sequence_chain, observed_value) VALUES
  ('VEKEKYVSYIS [JMJD1C_Y596_M591V]', 0.567),
  ('EKEKEYMLPLD [DNM2_Y563_K562E]', 0.604),
  ('TISPFYCQSLF [CRYAA_Y48_R49C_YF]', 0.723),
  ('QAQMDYRRLQP [MPL_Y591]', 0.788),
  ('VVKTVYSLQPP [KNSTRN_Y87]', 0.525),
  ('PPDGEYFTLQI [TP53_Y327_L323P]', 10.2),
  ('DAKTIYDFTDT [PDK1_Y136_A134T]', 0.729),
  ('GRDQPYSGTGD [TYRO3_Y828_A831T]', 0.52),
  ('AHDGEYGAEAL [HBA1_Y25_A22D]', 0.645),
  ('EFRFIYMAVQH [PTPN11_Y515_Q510E_YF]', 0.864),
  ('GGSSPYSRRLP [CDK13_Y351]', 0.39),
  ('MEIHAYRKLLE [LMNA_Y376]', 0.57),
  ('SVVVPYDPPEV [TP53_Y220_E221D]', 0.711),
  ('LENSTYQFICV [CRB1_Y760_R764C_YF]', 3.21),
  ('GKANRYFSPNF [PTEN_Y336_D331G]', 0.685),
  ('REETTYLPLTS [ICAM3_Y527_S525T]', 0.644),
  ('GRQWNYVASML [KLHL4_Y552_S557L]', 0.565),
  ('ILGRFYETGSI [PAX2_Y73_YF]', 0.578),
  ('GDPTEYYITAI [IGSF22_Y501_S503I]', 2.6),
  ('IRKKYYRAILE [CHD7_Y1218_Q1214R]', 0.439),
  ('ISKKRYAGLLF [POLD1_Y809]', 0.467),
  ('LSNPAYCLLLA [DDR1_Y513_R514C]', 4.44),
  ('CPFNLYAEQLS [HGD_Y40_YF]', 0.698),
  ('EQKKNYNAMKK [SCN5A_Y1495_Y1494N]', 0.826),
  ('GVASDYKCIDP [VPS13B_Y1991]', 0.827),
  ('SNFRAYATEPQ [TNNI3_Y29_H34Q_YF]', 0.494),
  ('RNLDTYQKRLR [PLA2G2D_Y126]', 0.484),
  ('RKMSSYAFFVQ [HMGB1_Y16_G11R]', 0.737),
  ('LHRAHYDLCHT [AHSG_Y314_R317C]', 0.648);
